tested on: Staphylococcus aureus; experiment: Antimicrobial activity against Staphylococcus aureus IFO 3060 at 200 ug/disc after 24 hrs by agar disc diffusion method; type: functional; conditions: IFO 3060, 24 h, read-out: DIZ
endpoint-label: zone of inhibition at 200 µg/disc (mm)
One number for each entry, in mm.

Input line: Given "N#Cc1c(O)nc(SCc2ccc(Cl)cc2)nc1-c1ccccc1" , respond with its zone of inhibition at 200 µg/disc.
Output line: 20

Input line: Given "CCOCCSc1nc(-c2ccccc2)c(C#N)c(=O)[nH]1" , respond with its zone of inhibition at 200 µg/disc.
Output line: 21

Input line: Given "N#Cc1c(Sc2ccccc2)nc(SCc2ccc(Cl)cc2)nc1-c1ccccc1" , respond with its zone of inhibition at 200 µg/disc.
Output line: 12

Input line: Given "N#Cc1c(-c2ccccc2)nc(SCc2ccc(F)cc2)[nH]c1=O" , respond with its zone of inhibition at 200 µg/disc.
Output line: 22

Here are 6 compounds. What values of zone of inhibition at 200 µg/disc were reported for them?
1. CSCCSc1nc(-c2ccccc2)c(C#N)c(=O)[nH]1
2. N#Cc1c(Nc2ccc(C(F)(F)F)cc2)nc(SCc2ccc(Cl)cc2)nc1-c1ccccc1
3. N#Cc1c(Cl)nc(SCc2ccc(Cl)cc2)nc1-c1ccccc1
4. N#Cc1c(Nc2ccccc2C(F)(F)F)nc(SCc2ccc(Cl)cc2)nc1-c1ccccc1
5. N#Cc1c(-c2ccccc2)nc(SCOCc2ccccc2)[nH]c1=O
6. N#Cc1c(-c2ccccc2)nc(SCc2ccc([N+](=O)[O-])cc2)[nH]c1=O

Output line:
1: 16; 2: 15; 3: 24; 4: 12; 5: 14; 6: 14

---

system: Staphylococcus aureus; assay: Antimicrobial activity against Staphylococcus aureus IFO 3060 at 200 ug/disc after 24 hrs by agar disc diffusion method; type: functional; details: IFO 3060, 24 h, read-out: DIZ
Record form. Attribute: zone of inhibition at 200 µg/disc. Fill in for each entry.
Answers are plain numbers, in mm.

// solved cases for zone of inhibition at 200 µg/disc follow
Input line: Given "Cc1ccc(Sc2nc(SCc3ccc(Cl)cc3)nc(-c3ccccc3)c2C#N)cc1" , respond with its zone of inhibition at 200 µg/disc.
Output line: 14

Input line: Given "CCSCCSc1nc(-c2ccccc2)c(C#N)c(=O)[nH]1" , respond with its zone of inhibition at 200 µg/disc.
Output line: 12

Read the next record carefully.
Input line: Given "N#Cc1c(-c2ccccc2)nc(SCc2ccccc2)[nH]c1=O" , respond with its zone of inhibition at 200 µg/disc.
Output line: 16

---

system: Staphylococcus aureus; assay: Antimicrobial activity against Staphylococcus aureus IFO 3060 at 200 ug/disc after 24 hrs by agar disc diffusion method; format: functional; conditions: IFO 3060, 24 h, read-out: DIZ
Record form. Attribute: zone of inhibition at 200 µg/disc. Fill in for each entry.
One number for each entry, in mm.

// solved cases for zone of inhibition at 200 µg/disc follow
Input line: Given "N#Cc1c(Nc2ccc(F)cc2)nc(SCc2ccc(Cl)cc2)nc1-c1ccccc1" , respond with its zone of inhibition at 200 µg/disc.
Output line: 16

Input line: Given "COCCSc1nc(-c2ccccc2)c(C#N)c(=O)[nH]1" , respond with its zone of inhibition at 200 µg/disc.
Output line: 18

Input line: Given "N#Cc1c(Nc2cccc(C(F)(F)F)c2)nc(SCc2ccc(Cl)cc2)nc1-c1ccccc1" , respond with its zone of inhibition at 200 µg/disc.
Output line: 14

Further cases:
Input line: Given "N#Cc1c(-c2ccccc2)nc(SCc2ccc([N+](=O)[O-])o2)[nH]c1=O" , respond with its zone of inhibition at 200 µg/disc.
Output line: 33
